- study.target: CaV 1.2 (Homo sapiens)
- Sequence (Q13936 whole entry): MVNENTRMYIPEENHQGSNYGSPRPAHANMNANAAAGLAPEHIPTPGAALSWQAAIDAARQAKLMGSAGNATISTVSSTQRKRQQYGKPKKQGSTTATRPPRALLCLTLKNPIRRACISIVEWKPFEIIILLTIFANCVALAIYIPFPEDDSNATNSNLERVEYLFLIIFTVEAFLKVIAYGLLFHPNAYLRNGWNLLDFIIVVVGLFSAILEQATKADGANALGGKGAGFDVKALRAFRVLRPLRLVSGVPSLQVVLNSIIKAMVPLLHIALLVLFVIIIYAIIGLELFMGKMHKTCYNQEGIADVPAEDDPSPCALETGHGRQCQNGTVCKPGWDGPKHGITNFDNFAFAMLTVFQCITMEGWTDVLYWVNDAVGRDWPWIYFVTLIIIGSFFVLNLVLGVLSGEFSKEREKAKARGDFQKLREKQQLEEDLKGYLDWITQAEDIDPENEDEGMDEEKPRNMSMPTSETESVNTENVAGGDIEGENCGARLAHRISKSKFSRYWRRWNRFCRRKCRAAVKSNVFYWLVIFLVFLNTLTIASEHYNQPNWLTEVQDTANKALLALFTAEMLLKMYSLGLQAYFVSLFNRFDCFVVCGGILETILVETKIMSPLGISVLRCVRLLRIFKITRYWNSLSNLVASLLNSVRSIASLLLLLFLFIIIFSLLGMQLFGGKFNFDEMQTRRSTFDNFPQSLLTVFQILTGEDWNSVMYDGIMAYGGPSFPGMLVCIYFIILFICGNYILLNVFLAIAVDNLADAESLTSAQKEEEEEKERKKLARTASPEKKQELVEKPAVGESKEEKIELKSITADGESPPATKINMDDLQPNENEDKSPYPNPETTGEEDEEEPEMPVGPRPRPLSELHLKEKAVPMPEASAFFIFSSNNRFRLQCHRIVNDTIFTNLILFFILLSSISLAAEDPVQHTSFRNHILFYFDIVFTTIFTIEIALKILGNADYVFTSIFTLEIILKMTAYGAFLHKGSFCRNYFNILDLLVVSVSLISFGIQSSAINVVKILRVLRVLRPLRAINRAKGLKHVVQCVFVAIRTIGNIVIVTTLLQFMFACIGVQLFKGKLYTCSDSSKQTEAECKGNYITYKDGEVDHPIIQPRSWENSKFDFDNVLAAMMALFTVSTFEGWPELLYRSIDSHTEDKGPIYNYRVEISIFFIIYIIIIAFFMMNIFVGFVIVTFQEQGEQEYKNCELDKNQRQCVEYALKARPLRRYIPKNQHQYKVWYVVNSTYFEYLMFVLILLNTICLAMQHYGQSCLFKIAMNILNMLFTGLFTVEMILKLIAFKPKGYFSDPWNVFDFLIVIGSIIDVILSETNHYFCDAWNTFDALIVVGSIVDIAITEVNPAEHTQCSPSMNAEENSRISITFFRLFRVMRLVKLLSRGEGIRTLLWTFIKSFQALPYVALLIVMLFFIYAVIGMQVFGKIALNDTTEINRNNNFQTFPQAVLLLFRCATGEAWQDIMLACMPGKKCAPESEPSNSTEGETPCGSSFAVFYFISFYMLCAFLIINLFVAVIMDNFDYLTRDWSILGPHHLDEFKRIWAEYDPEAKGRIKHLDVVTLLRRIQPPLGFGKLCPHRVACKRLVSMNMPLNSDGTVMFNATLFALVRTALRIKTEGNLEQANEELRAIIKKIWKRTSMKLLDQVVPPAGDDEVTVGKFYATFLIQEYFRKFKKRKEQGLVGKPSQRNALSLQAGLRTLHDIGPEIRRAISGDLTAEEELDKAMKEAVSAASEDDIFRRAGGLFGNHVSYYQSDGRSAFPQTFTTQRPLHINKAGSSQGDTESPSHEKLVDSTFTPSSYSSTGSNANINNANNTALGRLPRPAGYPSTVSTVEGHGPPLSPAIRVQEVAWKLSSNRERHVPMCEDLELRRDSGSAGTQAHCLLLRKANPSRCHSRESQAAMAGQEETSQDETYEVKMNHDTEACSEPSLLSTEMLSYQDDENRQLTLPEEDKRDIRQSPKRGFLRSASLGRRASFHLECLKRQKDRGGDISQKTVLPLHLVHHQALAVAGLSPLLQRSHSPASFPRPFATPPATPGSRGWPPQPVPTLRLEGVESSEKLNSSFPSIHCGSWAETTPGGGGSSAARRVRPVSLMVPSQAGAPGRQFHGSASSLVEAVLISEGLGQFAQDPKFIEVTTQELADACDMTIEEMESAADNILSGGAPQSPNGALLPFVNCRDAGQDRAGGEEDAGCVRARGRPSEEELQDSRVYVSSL
observation.type: IC50

Please state recorded IC50 (tested on CaV 1.2 (Homo sapiens)) of CC(C)(C)c1cc(C(C)(C)CO)c(O)cc1NC(=O)c1c[nH]c2ccccc2c1=O > 5 µM

====

- study.target: ΔF508-CFTR in NIH 3T3 cells (Homo sapiens, UniProt P13569, DEL508-508)
- Sequence (P13569 with tags, fused parts or gaps DEL508-508): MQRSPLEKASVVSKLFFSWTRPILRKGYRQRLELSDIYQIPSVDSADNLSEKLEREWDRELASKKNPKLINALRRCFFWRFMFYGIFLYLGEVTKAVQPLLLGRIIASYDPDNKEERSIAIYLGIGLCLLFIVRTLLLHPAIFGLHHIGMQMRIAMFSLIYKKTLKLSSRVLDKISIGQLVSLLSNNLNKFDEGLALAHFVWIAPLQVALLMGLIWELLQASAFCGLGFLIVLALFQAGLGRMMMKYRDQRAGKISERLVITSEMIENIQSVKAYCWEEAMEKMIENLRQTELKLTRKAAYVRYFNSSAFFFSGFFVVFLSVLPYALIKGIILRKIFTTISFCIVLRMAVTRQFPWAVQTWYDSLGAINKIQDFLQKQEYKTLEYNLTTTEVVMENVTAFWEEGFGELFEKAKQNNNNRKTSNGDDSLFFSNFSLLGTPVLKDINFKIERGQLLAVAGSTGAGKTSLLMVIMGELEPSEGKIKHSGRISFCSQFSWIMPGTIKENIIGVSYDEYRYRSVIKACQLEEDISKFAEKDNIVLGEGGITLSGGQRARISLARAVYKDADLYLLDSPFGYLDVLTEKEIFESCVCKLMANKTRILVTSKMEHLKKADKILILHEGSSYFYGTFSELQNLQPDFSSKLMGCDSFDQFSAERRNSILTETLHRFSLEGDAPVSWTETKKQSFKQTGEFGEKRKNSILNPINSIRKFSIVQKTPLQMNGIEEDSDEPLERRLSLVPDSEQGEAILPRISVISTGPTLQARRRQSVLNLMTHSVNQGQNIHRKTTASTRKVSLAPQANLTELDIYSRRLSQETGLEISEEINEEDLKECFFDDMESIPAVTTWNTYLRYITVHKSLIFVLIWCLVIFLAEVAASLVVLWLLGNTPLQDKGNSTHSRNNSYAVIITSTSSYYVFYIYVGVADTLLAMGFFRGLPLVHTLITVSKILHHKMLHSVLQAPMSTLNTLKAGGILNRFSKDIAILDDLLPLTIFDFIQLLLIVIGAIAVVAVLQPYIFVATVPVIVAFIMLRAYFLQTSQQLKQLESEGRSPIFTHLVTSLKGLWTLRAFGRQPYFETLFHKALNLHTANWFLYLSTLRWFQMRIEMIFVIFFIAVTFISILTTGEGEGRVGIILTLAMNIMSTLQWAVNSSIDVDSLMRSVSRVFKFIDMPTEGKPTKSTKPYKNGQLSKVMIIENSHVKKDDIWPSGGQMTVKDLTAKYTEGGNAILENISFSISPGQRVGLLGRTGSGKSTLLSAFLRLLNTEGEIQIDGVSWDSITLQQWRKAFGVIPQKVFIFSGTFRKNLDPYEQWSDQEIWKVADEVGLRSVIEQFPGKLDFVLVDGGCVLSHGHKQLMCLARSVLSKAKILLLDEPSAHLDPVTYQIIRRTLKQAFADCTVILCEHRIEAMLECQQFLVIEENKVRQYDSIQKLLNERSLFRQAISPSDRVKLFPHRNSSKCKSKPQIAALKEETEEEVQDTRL
- test.name: Membrane potential optical potentiator assay (FLIPR III)
- condition.set: temperature-corrected ΔF508 CFTR NIH 3T3 cells, forskolin
pEC50: −log10 of the molar value.
In this section we review reported pEC50 values for a set of molecules.

molecule	measured
CC(C)(C)c1cc(C(C)(C)C(=O)O)c(O)cc1NC(=O)c1c[nH]c2ccccc2c1=O [Compound 28]	5.30 to 5.70

GET /values?readout=pEC50&item= CC(C)(C)c1cc(C(C)(C)CO)c(O)cc1NC(=O)c1c[nH]c2ccccc2c1=O [Compound 27] > 5.70

Cited source: patent US8796308B2
